# Tested on: Human immunodeficiency virus 1
# measurement_description: Inhibition of HIV-1 D34 replication in human peripheral blood mononuclear cells.
# Assay type: functional
# assay_setup: read-out: ED50 (the source's name)
// values below are reported pEC50
For clarity, pEC50 is expressed as the negative log10 of concentration in mol/L.

Q: So what's the measured pEC50 for this one? CC(C)Nc1cccnc1N1CCN(C(=O)c2cc3cc(NC(=O)C(F)(F)F)ccc3[nH]2)CC1
Ans: 9.00

Q: pEC50 for CC(C)Nc1cccnc1N1CCN(C(=O)c2cc3ccc(CO)cc3[nH]2)CC1 ?
Ans: 9.00

Q: Bench note: what pEC50 did CC(C)Nc1cccnc1N1CCN(C(=O)c2cc3cc(NS(=O)(=O)C(F)(F)F)ccc3[nH]2)CC1 show?
Ans: 7.00

Q: Give the measured pEC50 of CC(C)Nc1cccnc1N1CCN(C(=O)c2cc3cc(O)ccc3[nH]2)CC1 .
Ans: 9.00

Okay, now this molecule:
Q: Query (molecule): CC(C)Nc1cccnc1N1CCN(C(=O)c2cc3ccc(F)cc3[nH]2)CC1 ; field requested: pEC50
Ans: 9.00
